Biological target: CAv1.2 (Homo sapiens)
Sequence (Q13936 whole entry): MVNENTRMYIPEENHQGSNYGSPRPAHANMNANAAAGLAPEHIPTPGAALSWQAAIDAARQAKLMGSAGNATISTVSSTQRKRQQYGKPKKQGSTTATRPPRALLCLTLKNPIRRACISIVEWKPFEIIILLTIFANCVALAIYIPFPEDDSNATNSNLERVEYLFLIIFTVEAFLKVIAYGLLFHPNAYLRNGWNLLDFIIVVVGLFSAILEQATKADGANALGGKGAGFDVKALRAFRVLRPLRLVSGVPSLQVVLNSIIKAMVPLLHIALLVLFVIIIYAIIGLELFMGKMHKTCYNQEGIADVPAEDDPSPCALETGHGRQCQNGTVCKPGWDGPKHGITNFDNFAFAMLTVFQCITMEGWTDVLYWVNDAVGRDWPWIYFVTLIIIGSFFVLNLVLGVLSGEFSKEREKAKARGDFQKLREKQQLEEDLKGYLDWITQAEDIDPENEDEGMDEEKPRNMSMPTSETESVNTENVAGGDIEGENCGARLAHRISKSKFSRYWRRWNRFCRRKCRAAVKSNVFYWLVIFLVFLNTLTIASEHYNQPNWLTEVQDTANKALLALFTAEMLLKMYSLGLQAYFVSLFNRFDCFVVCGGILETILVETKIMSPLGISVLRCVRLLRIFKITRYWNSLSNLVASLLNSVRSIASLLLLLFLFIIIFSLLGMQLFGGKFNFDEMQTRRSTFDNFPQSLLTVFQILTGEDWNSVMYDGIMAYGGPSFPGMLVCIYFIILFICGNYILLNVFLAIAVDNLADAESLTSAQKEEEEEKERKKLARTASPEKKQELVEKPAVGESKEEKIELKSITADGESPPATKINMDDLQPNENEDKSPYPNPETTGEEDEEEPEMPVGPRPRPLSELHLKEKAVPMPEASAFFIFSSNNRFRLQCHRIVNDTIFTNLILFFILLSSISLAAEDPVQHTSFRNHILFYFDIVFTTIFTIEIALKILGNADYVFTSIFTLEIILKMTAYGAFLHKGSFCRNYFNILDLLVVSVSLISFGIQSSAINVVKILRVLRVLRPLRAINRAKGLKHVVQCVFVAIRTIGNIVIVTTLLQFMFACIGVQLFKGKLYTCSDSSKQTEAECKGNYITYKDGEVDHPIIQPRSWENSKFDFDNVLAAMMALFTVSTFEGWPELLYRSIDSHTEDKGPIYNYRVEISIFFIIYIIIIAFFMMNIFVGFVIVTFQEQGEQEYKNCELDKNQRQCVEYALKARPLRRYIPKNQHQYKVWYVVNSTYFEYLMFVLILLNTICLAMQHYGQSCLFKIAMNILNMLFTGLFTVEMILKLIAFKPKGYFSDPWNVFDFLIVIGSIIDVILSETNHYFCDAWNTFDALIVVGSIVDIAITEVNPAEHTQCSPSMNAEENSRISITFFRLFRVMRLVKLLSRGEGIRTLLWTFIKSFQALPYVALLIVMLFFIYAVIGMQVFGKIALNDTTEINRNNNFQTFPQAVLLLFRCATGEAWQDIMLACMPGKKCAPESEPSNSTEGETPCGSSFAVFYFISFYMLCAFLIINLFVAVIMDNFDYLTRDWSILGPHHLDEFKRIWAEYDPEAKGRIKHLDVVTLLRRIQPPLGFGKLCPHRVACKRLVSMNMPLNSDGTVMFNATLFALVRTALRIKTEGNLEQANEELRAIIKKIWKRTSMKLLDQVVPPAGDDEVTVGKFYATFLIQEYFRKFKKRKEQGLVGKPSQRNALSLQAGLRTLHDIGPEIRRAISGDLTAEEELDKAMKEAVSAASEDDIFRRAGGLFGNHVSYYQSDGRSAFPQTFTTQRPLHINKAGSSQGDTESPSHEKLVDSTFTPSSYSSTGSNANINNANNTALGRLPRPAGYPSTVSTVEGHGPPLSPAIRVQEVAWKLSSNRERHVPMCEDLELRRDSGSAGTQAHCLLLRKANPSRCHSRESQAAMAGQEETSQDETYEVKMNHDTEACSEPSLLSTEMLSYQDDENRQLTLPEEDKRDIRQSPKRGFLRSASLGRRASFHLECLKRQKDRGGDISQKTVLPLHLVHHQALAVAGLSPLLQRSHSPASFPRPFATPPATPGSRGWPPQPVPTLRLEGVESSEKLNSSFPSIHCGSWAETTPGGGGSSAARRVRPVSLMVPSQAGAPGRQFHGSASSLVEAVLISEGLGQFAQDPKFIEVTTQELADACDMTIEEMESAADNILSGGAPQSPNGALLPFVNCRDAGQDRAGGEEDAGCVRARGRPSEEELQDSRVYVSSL
Sequence (P54289 25-1103 partner): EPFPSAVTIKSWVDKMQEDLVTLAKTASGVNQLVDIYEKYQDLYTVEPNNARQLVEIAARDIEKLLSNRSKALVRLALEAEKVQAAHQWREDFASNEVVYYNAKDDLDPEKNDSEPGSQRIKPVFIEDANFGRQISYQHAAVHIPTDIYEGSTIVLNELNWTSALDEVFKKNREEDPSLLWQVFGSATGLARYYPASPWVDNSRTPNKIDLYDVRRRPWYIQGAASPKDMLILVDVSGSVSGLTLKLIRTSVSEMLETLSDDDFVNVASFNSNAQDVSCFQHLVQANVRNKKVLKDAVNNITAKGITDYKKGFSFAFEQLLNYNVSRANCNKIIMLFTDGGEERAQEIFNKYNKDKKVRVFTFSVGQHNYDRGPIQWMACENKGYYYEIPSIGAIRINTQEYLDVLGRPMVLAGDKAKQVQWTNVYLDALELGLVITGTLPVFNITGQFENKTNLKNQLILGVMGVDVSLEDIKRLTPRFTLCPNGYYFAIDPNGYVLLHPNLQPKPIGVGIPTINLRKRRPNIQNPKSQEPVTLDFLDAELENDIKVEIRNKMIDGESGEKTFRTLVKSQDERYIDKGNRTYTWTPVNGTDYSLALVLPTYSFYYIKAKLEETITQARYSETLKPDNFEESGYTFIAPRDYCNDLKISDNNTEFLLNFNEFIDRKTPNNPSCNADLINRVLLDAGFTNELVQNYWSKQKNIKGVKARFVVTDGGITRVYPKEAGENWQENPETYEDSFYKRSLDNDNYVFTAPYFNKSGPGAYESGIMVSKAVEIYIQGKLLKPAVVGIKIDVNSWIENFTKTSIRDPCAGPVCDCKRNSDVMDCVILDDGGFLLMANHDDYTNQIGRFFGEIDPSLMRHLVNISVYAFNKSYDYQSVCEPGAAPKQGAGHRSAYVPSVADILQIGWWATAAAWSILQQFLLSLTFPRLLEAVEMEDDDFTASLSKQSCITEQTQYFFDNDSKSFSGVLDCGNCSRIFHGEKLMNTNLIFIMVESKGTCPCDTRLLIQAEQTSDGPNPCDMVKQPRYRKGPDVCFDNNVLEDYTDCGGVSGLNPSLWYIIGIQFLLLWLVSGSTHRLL
Sequence (Q08289 whole entry partner): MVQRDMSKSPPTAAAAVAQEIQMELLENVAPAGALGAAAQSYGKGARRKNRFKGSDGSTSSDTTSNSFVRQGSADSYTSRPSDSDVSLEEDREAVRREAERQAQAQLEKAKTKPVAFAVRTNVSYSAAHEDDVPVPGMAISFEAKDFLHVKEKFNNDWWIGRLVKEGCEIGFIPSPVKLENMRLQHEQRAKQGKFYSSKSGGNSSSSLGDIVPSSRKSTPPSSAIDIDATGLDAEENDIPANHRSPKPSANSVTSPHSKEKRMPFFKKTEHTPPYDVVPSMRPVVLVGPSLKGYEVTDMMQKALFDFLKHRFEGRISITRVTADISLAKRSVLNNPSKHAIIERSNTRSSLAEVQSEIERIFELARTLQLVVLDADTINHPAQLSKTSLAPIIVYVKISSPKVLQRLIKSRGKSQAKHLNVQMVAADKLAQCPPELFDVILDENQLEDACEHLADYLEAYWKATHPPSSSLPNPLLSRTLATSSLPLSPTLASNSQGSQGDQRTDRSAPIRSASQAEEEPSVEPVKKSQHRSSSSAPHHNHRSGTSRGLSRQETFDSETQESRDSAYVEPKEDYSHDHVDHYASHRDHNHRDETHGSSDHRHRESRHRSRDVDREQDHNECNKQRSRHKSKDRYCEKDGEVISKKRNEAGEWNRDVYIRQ
Experiment: FLIPR data, CAv1.2 channel blocking (Table 6)
Assay type: cell-based
Conditions: closed state, read-out: CAv1.2 IC50 Closed
MEASURE: pIC50
pIC50 here: minus log base 10 of the concentration, concentration in moles per litre.

- COMPOUND: "CC(C)([C@H]1C[C@@H](CNC(=O)c2ccc(Cl)c(OC(F)(F)F)c2)C1)S(=O)(=O)c1cccc(C(F)(F)F)c1"
  pIC50: 5.34
- COMPOUND: "CC(C)(C1CC(CNC(=O)c2ccnc(C(F)(F)F)c2)C1)S(=O)(=O)c1cccc(C(F)(F)F)c1 (stereo not shown)"
  pIC50: 5.00

Q: Any idea what pIC50 was measured for CC(C)(C1CC(CNC(=O)c2cc(C(F)(F)F)n[nH]2)C1)S(=O)(=O)c1cccc(C(F)(F)F)c1 (stereo not shown) [Compound 614] ?
Ans: 5.10
